Exercise: for every item that follows, state its recorded activity, negative = inhibition.
- TESTED_ON: Cytochrome P450 2D6 (Homo sapiens) (UniProt P10635)
- Sequence (P10635 whole entry, looked up): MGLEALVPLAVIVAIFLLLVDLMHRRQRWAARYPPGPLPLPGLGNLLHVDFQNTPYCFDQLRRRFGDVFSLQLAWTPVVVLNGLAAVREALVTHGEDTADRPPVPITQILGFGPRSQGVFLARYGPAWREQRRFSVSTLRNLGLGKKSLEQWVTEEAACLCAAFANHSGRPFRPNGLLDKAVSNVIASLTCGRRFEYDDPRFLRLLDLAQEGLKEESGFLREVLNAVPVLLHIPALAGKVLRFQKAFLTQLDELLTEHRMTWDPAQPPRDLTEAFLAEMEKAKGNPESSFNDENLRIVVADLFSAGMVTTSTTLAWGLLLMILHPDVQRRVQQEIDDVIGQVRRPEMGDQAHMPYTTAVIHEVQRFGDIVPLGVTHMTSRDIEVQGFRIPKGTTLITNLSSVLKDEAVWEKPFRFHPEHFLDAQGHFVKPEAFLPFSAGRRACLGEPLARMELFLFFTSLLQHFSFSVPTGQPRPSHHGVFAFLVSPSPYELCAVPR
- ASSAY_INFO: Cytochrome panel assay with activity outcomes; further: on the % scale 0 is the no-effect control and ±100 the full control effect
- STATED_CONDITIONS: recombinant CYP, pro-luciferin dealkylation, luminescence, p450-cyp2d6; series mostly up to 57.1 µM
About 2,600 (16%) of roughly 16,000 compounds were called active. Not shown: some 20% with an inconclusive outcome. The list is a sample of the results.

# input Can you share its activity, negative = inhibition? I mean this compound: `O=C(O)Cc1cc(Cl)ccc1O`
# output 16.8% [at 11.4 µM] (inactive)

# input Can you share its activity, negative = inhibition? I mean this compound: `O=C(Cn1ccc(=O)[nH]c1=O)Nc1ccc(C(=O)O)c(O)c1`
# output -2.13% [at 11.4 µM] (inactive)

# input Can you share its activity, negative = inhibition? I mean this compound: C=C1C=C(Br)C2(OCCCO2)[C@H]2OC12 (some centres undefined)
# output 3.88% [at 11.4 µM] (inactive)

# input Can you share its activity, negative = inhibition? I mean this compound: `COc1ccc(COC(=O)N/N=C2/C[C@@H](O)[C@@H](O)[C@@H]3[C@@H]4C(=O)N(C(C)(C)C)C(=O)[C@H]4CC[C@@H]23)cc1`
# output 12.5% [at 11.4 µM] (inactive)

# input Can you share its activity, negative = inhibition? I mean this compound: `Oc1cc(O)c2c(c1)O[C@H](c1ccc(O)c(O)c1)[C@@H](O)[C@@H]2c1c(O)cc(O)c2c1O[C@@H](c1ccc(O)c(O)c1)[C@H](O)C2`
# output -5.15% [at 11.4 µM] (inactive)

# input Can you share its activity, negative = inhibition? I mean this compound: `Nc1cccc2cc(S(=O)(=O)Nc3ccc(C(=O)O)cc3)ccc12`
# output 4.25% [at 11.4 µM] (inactive)

# input Can you share its activity, negative = inhibition? I mean this compound: `C=CC[C@@H]1C=C[C@@H](O/N=C\[C@@H](OC)[C@H](C)/C=C\CC(=O)OC)[C@@H](CO)O1`
# output 4.18% [at 11.4 µM] (inactive)

# input Can you share its activity, negative = inhibition? I mean this compound: `C[C@H](NC(=O)c1ccc(Cl)c(Cl)c1)c1ccc(-c2ccccc2)cc1`
# output -1.17% [at 11.4 µM] (inactive)

# input Can you share its activity, negative = inhibition? I mean this compound: `COC(=O)C/C=C\[C@H](C)[C@@H](OC)c1ccccc1Br`
# output 12.6% [at 11.4 µM] (inactive)
